B1: Hairpin Ribozyme (parent)
chain: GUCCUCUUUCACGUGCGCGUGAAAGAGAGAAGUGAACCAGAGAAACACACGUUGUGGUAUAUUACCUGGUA

- Variants of: B1
- methodSummary: self-cleavage, relative activity (ratio to wild type); higher = more cleavage; co-transcriptional
quantityMeasured: self-cleavage
No unit in the answer, please; the number alone is enough.

// known answers, use as guide
GUCCUCUUUCACGUACGCGUGAAAGAGAGAAGUGAACCAGAGAAACACACGUUGUGGGAUAUUACCUGGUA : 0.501
GUCCUCUUUCACGUGCGCGUGAAAGAGAGAAGUGAACCAGAGAAACACACGUUGUGGUAUACUACUUGGUA : 0.189
GUCCUCUUUCACGUGCGCGUGAAAGAGAGAAGUGAACCAGAGCAACACACGUUGUGGUAUUUUACCUGGUA : 0.0908
GUCCUCUUUCACGUGCGCGUGAAAUAGACAAGUGAACCAGAGAAACACACGUUGUGGUAUAUUACCUGGUA : 0.153
GUCCUCUUUCACGUGCGCGUGAAAGGGAGAAGUGAACCAGACAAACACACGUUGUGGUAUAUUACCUGGUA : 0.357

Given item GUCCUCUUUCACGUGCGCGUGAAAGAGAGAAGUGACCCAGAGAAACACACGUUGUGGUAUCUUACCUGGUA , the value recorded as its self-cleavage is 0.116

Given item GUCCUCUUUCACGUGCGCGUGAAAGAGAGAAGUGAACCAGAGAAACACACGUUGUAUUAUAUUACCUGGUA , the value recorded as its self-cleavage is 0.176
